# experimental.details: chemical genetic growth profiling, strain panel (AID 1159580);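 also: tested at 20 µM; growth read once vehicle control cultures reached saturation at 30 °C; lower values mean less growth of the strain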
# conditions.used: S. cerevisiae deletion strains, growth OD, locus YDR334W, strain swr1
Among all 5,500 compounds or so, about 2,000 (36%) were called active. Another 18% or so got no clear call; they are omitted. Rule as the data show it: active = normalized growth mostly below about 0.91 (no sharp cut-off); inconclusive = no clear call, values can overlap the other calls; inactive = mostly above about 0.92. This is one part of the list.
Outcomes: active, inactive

[[record]]
molecule = "Cc1c(S(=O)(=O)O)oc2c1C(=O)C(=O)c1c-2ccc2c1CCCC2(C)C"
classification = "inactive"

[[record]]
molecule = "CCCCCCCCCCCCCCCC(=O)OC1C(SC)OC(C(NC(=O)C2CC(CCC)CN2C)C(C)Cl)C(O)C1O (stereo unspecified)"
classification = "inactive"

[[record]]
molecule = "Cc1coc2c1C(=O)C(=O)c1c-2ccc2c1CCCC2(C)C"
classification = "inactive"

[[record]]
molecule = "CC1OC1P(=O)(O)O (stereo unspecified)"
classification = "inactive"

[[record]]
molecule = "OCCOCCN1CCN(C2=Nc3ccccc3Sc3ccccc32)CC1"
classification = "inactive"

[[record]]
molecule = "CC(=O)OC1CCC2(C)C(=CC=C3C2CCC2(C)C3CCC2C(C)/C=C/C(C)C(C)C)C1(C)C (stereo unspecified)"
classification = "inactive"

[[record]]
molecule = "C[C@H]1COC2=C1C(=O)C(=O)c1c2ccc2c1CCCC2(C)C"
classification = "active"

[[record]]
molecule = "CCNC(=O)CC[C@H](N)C(=O)O"
classification = "inactive"

[[record]]
molecule = "CO/N=C(\\C(=O)NC1C(=O)N2C(C(=O)O)=C(COC(N)=O)CSC12)c1ccco1 (stereo unspecified)"
classification = "inactive"

[[record]]
molecule = "CC(=O)N[C@@H](CS)C(=O)O"
classification = "inactive"

[[record]]
molecule = "CO[C@@]1(NC(=O)CSCC#N)C(=O)N2C(C(=O)O)=C(CSc3nnnn3C)CSC21 (stereo partly specified)"
classification = "inactive"

